# experimental system: VTCN1, Q7Z7D3
# Sequence (Q7Z7D3 whole entry): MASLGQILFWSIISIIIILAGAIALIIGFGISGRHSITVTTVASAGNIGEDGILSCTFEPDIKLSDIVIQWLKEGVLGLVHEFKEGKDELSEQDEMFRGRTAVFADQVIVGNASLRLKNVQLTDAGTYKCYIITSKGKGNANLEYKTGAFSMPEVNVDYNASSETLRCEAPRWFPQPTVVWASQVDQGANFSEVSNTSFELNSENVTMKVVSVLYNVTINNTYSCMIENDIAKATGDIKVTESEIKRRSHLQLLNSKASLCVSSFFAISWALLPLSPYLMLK
Possible outcomes: active, inactive

binder	group
design_609_7ee6ce64-4629-41e8-bcb4-ba0da017284d_862_dldesign_0_cycle1_af2pred (protein) MEVAKLAHEALEAAAEGEAVAKNDPEKREKLRELARKAREAAKKGDVEEAKKLAKEVKKLAKALEKEKKEKEK	inactive
design_601_c3fd07b4-2f34-4ad8-bd4e-2749faf628eb_1497_dldesign_0_cycle1_af2pred (protein) SMEEEEQRRRAIEELKRLMELADKSPSEIAKATREAVAATPLYAERIRKVGTAMMFNPEEGKKLAEEAIKELE	active
design_599_7ce25d4d-e004-4b84-a16f-baf856d943ab_928_dldesign_0_cycle1_af2pred (protein) AAAKEEAEKRAKKALEEGEKAAKEIEKSNAEEARKIAKEFREKAKELVADPEASPEEKKALAEGAQKAYEAAAEKEAKE	inactive
design_596_3e5f537c-0703-45f0-993f-ff416531349a_1315_dldesign_0_cycle1_af2pred (protein) SITYKNKALAYLEAAKHALEVAKKNVGDLEKVKKAYEQAKKFVEKALEYASKVTPEFLAEAKAESEKILAEMEKVLKEAE	inactive
design_606_b60ff77f-1541-4e5f-8260-46d5e5f6b85e_1708_dldesign_0_cycle1_af2pred (protein) NEAEKKLKKVAEDAEKALSEAIKASKDDPEKQKELKEKLEQVKKLYEEGLKGTPEDMAKAAAEMRQLRSEADYVLSNAK	inactive
design_601_c3fd07b4-2f34-4ad8-bd4e-2749faf628eb_503_dldesign_0_cycle1_af2pred (protein) AEKAIGNAHAYKNILKSEAEWSKKLPLEERKKRLKELVEEIAKIAAEAGEEVAEKFRKEAEAFAEEALKKQEEE	inactive
design_603_0b98da89-d791-4423-9b2d-fd1b7292da18_1535_dldesign_0_cycle1_af2pred (protein) MEEKYLKEAEKLLEEGKKEIERAGKEEGAEAAKEVGKKYLEKLTEVAKKLSPEKEGEVLLKFKKESMKIIKEAEEREK	inactive
design_599_7ce25d4d-e004-4b84-a16f-baf856d943ab_2004_dldesign_0_cycle1_af2pred (protein) DARKKAAELFKEAGKLATEAAKASPEEGKKLAEEAVAKVKEAAKVLGRERIGENFIKQIVAGRKSREIAGYQLEARADAIAA	inactive
design_599_7ce25d4d-e004-4b84-a16f-baf856d943ab_219_dldesign_0_cycle1_af2pred (protein) MDPAELAAAKQAEAEAIIAETKAKAEKYIEEAKKSKKYVEALQYVGRAEVLLDSTVSYLTKNVGPEAGEKAQEIADKTVKEGFEIVKK	inactive
design_607_777643b9-bd23-49d1-80ae-2b1434974efa_1231_dldesign_0_cycle1_af2pred (protein) AEEEKKKKEEEKKRTAENKALAYEEAARHAMEQGEKGSPEQRPAAVERAREFAKRAIEADPKKGAELLKEVEAFAAKWEEEA	inactive
design_604_3e0b3014-b333-46f1-8adc-d7f0bf8048fa_2206_dldesign_0_cycle1_af2pred (protein) NELEKLKEEIKKEGEKKLKEVEEKYKEAKKLLKEDKEKGLKLLAETAGKAYEYAAEFEVLSKKVPEAAEYAKKLRAKAKEIRKLAEEA	inactive
design_605_6ebdab39-eaab-4492-afcb-164e20c3b25e_1027_dldesign_0_cycle1_af2pred (protein) ALEEAKKKIEEAEKRASKRLDEVAAKVSPEEAKKLEEAKKELKEKTEKAKKLSPEEAIKLAAEAAAKAYEAAAEARAKE	inactive
design_603_0b98da89-d791-4423-9b2d-fd1b7292da18_74_dldesign_0_cycle1_af2pred (protein) KEKVKKLEEEAIKALKELSKYRDNPEKAAEYAEKLYEKAFEMGIPLSIASRAAKLAKEGEEGAKEGVKLIKEEAKKVIEE	inactive
